meta.source: paper PMC11076327

test: Navarixin pharmacokinetics in combination with pembrolizumab; format: in vivo, human; conditions: human, plasma, oral, MSS CRC; navarixin 100 mg + pembrolizumab 200 mg; Cycle 2 day 1 (steady state); geometric mean (% geometric CV); n=18
measured_property: AUC(0-t) (ng·h/mL)
Output spec: scalar in ng·h/mL, unitless text.

-- ask Return value of AUC(0-t) for input CC[C@@H](Nc1c(Nc2cccc(C(=O)N(C)C)c2O)c(=O)c1=O)c1ccc(C)o1 , no commentary.
-- reply 928

====

assay: Navarixin pharmacokinetics in combination with pembrolizumab; assay type: in vivo, human; conditions: human, plasma, oral, MSS CRC; navarixin 30 mg + pembrolizumab 200 mg; Cycle 1 day 1; geometric mean (% geometric CV); n=19
measured_property: Cmax

-- ask Indicate the recorded Cmax value for this molecule: CC[C@@H](Nc1c(Nc2cccc(C(=O)N(C)C)c2O)c(=O)c1=O)c1ccc(C)o1
-- reply 0.162 µg/mL

====

assay: Navarixin pharmacokinetics in combination with pembrolizumab; assay type: in vivo, human; conditions: human, plasma, oral, NSCLC; navarixin 100 mg + pembrolizumab 200 mg; Cycle 1 day 1; geometric mean (% geometric CV); n=13
measured_property: Cmax

-- ask Write down Cmax measured for item CC[C@@H](Nc1c(Nc2cccc(C(=O)N(C)C)c2O)c(=O)c1=O)c1ccc(C)o1
-- reply 324 ng/mL

====

assay: Navarixin pharmacokinetics in combination with pembrolizumab; assay type: in vivo, human; conditions: human, plasma, oral, CRPC; navarixin 30 mg + pembrolizumab 200 mg; Cycle 1 day 1; geometric mean (% geometric CV); n=20
measured_property: AUC(0-t) (ng·h/mL)
Write it as a number; the unit ng·h/mL goes unstated.

-- ask Please look at this compound and report its AUC(0-t): CC[C@@H](Nc1c(Nc2cccc(C(=O)N(C)C)c2O)c(=O)c1=O)c1ccc(C)o1
-- reply 363

====

experiment: Navarixin pharmacokinetics in combination with pembrolizumab; format: in vivo, human; conditions: human, plasma, oral, NSCLC; navarixin 30 mg + pembrolizumab 200 mg; Cycle 2 day 1 (steady state); geometric mean (% geometric CV); n=10
measured_property: AUC(0-inf)

-- ask Entry CC[C@@H](Nc1c(Nc2cccc(C(=O)N(C)C)c2O)c(=O)c1=O)c1ccc(C)o1 [Navarixin] needs its AUC(0-inf) filled in; supply it.
-- reply 450 ng·h/mL

====

experiment: Navarixin pharmacokinetics in combination with pembrolizumab; format: in vivo, human; conditions: human, plasma, oral, CRPC; navarixin 30 mg + pembrolizumab 200 mg; Cycle 2 day 1 (steady state); geometric mean (% geometric CV); n=18
measured_property: AUC(0-t)
Field: value (include unit after the number)

-- ask Report AUC(0-t) for CC[C@@H](Nc1c(Nc2cccc(C(=O)N(C)C)c2O)c(=O)c1=O)c1ccc(C)o1 [Navarixin]
-- reply 457 ng·h/mL

====

experiment: Navarixin pharmacokinetics in combination with pembrolizumab; assay type: in vivo, human; conditions: human, plasma, oral, MSS CRC; navarixin 100 mg + pembrolizumab 200 mg; Cycle 1 day 1; geometric mean (% geometric CV); n=21
measured_property: AUC(0-t) (ng·h/mL)
Quick note: give the figure in ng·h/mL, leave out the unit.

-- ask Indicate its recorded AUC(0-t); the compound in question is CC[C@@H](Nc1c(Nc2cccc(C(=O)N(C)C)c2O)c(=O)c1=O)c1ccc(C)o1 [Navarixin]
-- reply 1070
